test: yeast display, Sf9 membrane polyspecificity reagent, FACS + sequencing; frameworks hold sequencing errors

entry.sequence | polyreactivity (PSR sort gate)
QVQLVESGGGLVQAGGSLRLSCAASGRILEVYAMGWYRQAPGKERELVAAIRWSDGNTYYADSVKGRFTISRDNAKNTVYLQMNSLKPEDTAVYYCAARTPGGYDWGQGTQVTVSS | high polyreactivity
QVQLVESGGGLVQAGGSLRLSCAASGFIIWYSAMGWYRQAPGKERELVAAIRSGGSTYYADSVKGRFTISRDNAMNTVYLQMNSLKPEDTAVYYCAAGKNVYYFSRSKYGYDYWGQGTQVTVSS | high polyreactivity
QVQLLESGGGLVQAGGSLRLSCAASGRTFYGYTMGWYRQAPGKEWELVAAISTGGGSTYYADSVKGRFTISRDTAKNTVYLQMNSMKREDTAVYYCAARGGSYSFRRYNFWGQGTQVTVSS | high polyreactivity
QDQLVESGGGLVQAGGSLRLSCAASGRTFRKYAMGWYRPAPGKEREFVAAITSSGGSTYYADSVKGRYTISRDNAKNTVYLQMNSLKPEDTAVYYCAAARTSTGTYRYEYWGQGTQVTVSS | high polyreactivity

* * *

assay: yeast display, Sf9 membrane polyspecificity reagent, FACS + sequencing; frameworks hold sequencing errors
value.type: polyreactivity (PSR sort gate)

entry.sequence | polyreactivity (PSR sort gate)
QVQLQESGGGLVQAGGSLRLSCAESGYISHAVEMGWYRQAPGKVHELVASISNGGSTNYADSVKGRFTISRDNAKNTVYLQMNSLKSEDTAVYYCAAWTGQVDIHSYWGQGTQVSVSS | low polyreactivity
QVQLVESGGGLVQAGGSLRLSCAASGSTIRFYYMGWYRQEPGKERELVAAITGIGDSTYYSDSVKGRFTISRDNAKNSVYLQMNSLKPEDTAVYYCAAERYYYTARLRYWRYFWGQGTQVTVSS | high polyreactivity
QVQLVESGGGLVQAGGSHRLSCAASGSTFFRNAKGWYSQAPGKEREWVAANSYSGDSTYYADSVKGRFTISRDNEKNTVSLQMNRLKPDDTAVYYSNAVLFRYRYNYWGQGTQVNVSS | high polyreactivity
QVQLVESGGGLVQAGGSLRLRCASSGRTFRYNAMGWYRQAPGKERELVATISSSGGSTSYADSVKGRFTISRDNAKKTVYLQMNSLKPEDTAVYYCNKRRLVAAGNGMDSWGQGTQVTVSS | low polyreactivity
QVQLVESGGGVVQAGGSLRLSCAASGFIFFINDMGWDRQAPGKERELVAAISWSGGSTYYADSVKGRFTISRDNAKNTVYLQMNSLIPEDTAVYYCNTDVPTAQYDYWGQGTQVTVSS | low polyreactivity
QVQLVESGGGLVHAGGSLRISCAASGSTFPYYAMGWYRQAPVKERELVAAISRSGGSTYYADSVKGRFTISRDNAKNTVYLQMNRLKPEDTAVYYCNARLARWGSYEYNYWGQGTQVNVSS | low polyreactivity
QVQLVESGAGLVQAGGSLRLSCAASGSTFHYYAMGLYRQAPGKERELVATITWRGGFTYYADSVKGRFTISRDNAKNTVYLQMNSLKPEDTAGYYCTDYYVRRYRDPRLYYWGQGTQVTVSS | high polyreactivity
QVQLVESGGGLVQAGGSLRLSCAASGFTFWYNAMGWYRQAPGKERELVAAISKSGGSTYYADSVKGRFTISRDNAKNTVYLQMNILKPEDTAVYYCAARLPYNRYNYWGQGTQVTVSS | high polyreactivity
QVQLVESGGGLVQAGGSLRLSCAASGRTFGKNAMGWYRQAPGKERELVAAISGSGGSTYYADSVKGRFTISRDNAKNTVSLQMNSLKPEDTADYYCAKSYYGKYYPSDYWGQGTQVTVSS | low polyreactivity
QVQLVESGGGVVQAGGSLRLSCAASGRTFRPYAMGWYRQAPGKERELVAAIDSSGTSTYYADSVKGRFTISRDNAKNSVYLQMNSLKPEDTAVYYCAKAWPDHWYSRYDYWGQGTQVTVSS | low polyreactivity

Task item: Note polyreactivity (PSR sort gate) for the sequence shown: QVQLVESGGALVQAGGSLRLSCAASGCIFAPYAMGWYRQAPGKERELVADITEDTGITYYADSVKGRFTISRDNAKNNVYLHMNSLKPVDTAVYYCNAEFYFYDYWGQGTQVTVSS
Reply: low polyreactivity

Task item: Output polyreactivity (PSR sort gate) of QVQLVESGGGLVQAGGSLRLSCAASGSIFYAYAMGWYRQAPGKERELVATISRGVNTNYADSVKGRFTISRDNAKNTVYLQMNSLKPEDTAVYYCNARLRYGHGYGYWGQGTQVTVSS
Reply: low polyreactivity

Task item: Fill in reported polyreactivity (PSR sort gate) for this entry: QVQLVESGGGLVQAGGSLRLSCAASGFTFPSNAMGWYRQAPGKERELYAAISSTDSTNYADSVKGRFTISRDNAKNTFYLQMNSLKPEDTAVYYCAKRYPRYRYNTRGNDYWGQGSQVTVSS
Reply: low polyreactivity

Task item: Indicate the recorded polyreactivity (PSR sort gate) value for this sequence: QVQLVESGGGLVQAGGSLRLSCAASGRIFSPSDMGWYRQAPGKERELVAAIRSDGGRTHYADSVKGRFTISRDNAKNTVYLQMNSLKPEDTAVYYCARDNGRTITTTDTYDYWGQGTQVTVSS
Reply: low polyreactivity

Task item: State, in one line, measured polyreactivity (PSR sort gate) of QVQLVESGGGLVQAGGSLRLSCSASGSIFRRYAMGWYRQAPGKVRELVAVITTDGSTYYADSVKGRFTISRDNAKNTVYLQMHSLKPEDTAVYYCAAEDYVIGYSGYDYWGQGTQVTVSS
Reply: low polyreactivity

Task item: Quote polyreactivity (PSR sort gate) reported for QVQLVESGGGLVQAGGSLRLSCAASGFIFPRNVMGWYRQAPGKERELVAAISRSGGSTYYADSVKGRITISRDNAKNTVYLQMNSLKPEDTAVYYCDKRTFYNGEYWGQGTQVTVSS please.
Reply: high polyreactivity

Task item: For the sequence QVQLVESGGGLVQAGGSLRLSCAASGRTFGWYAMGWYRQAPGKERELVAAISSSDDSTYYADSVKGRFTISRDNAKNTVYLQMNSLKPEDTAVYYCAADGYPDPYKVRFGYWGQGTQVTVSS , report polyreactivity (PSR sort gate).
Reply: low polyreactivity

* * *

assay: yeast display, Sf9 membrane polyspecificity reagent, FACS + sequencing; frameworks hold sequencing errors
value.type: polyreactivity (PSR sort gate)

Examples with answers:
entry.sequence | value.type | result
QVQIVESGGGLVQAGGSLRLSCAASGNTFNYYTMGWYIQAPGKERELVAAIRSGGRTYYADSVKGRFTISRDNANNSVSLQMNSLKPEDTAVYFCAALAVTYRYDYWGQGTQLTVSS | polyreactivity (PSR sort gate) | high polyreactivity
QVQLVESGGGLVQAGGSLRLSCAASGNTFWLNAMGWYRQAPGKERELVASISYSGASTYYADSVKGRFTISRDNAKNTVYFQMNSLKPEDTAVYYCNTDGDDFFHVIYDYWGQGTQVTVSS | polyreactivity (PSR sort gate) | low polyreactivity
QVQLVESGGGLVQAGGSLRLSCAASGRTFYVNALGWYRQAPGKERELVAGISFSDGSTYYADSVKGRFTISRDNAKNTVYLQMNSLKPEDTAVYYCATVGAFDIYYGYGYWGQGTQVTVSS | polyreactivity (PSR sort gate) | low polyreactivity
QVQLVESGGCLVQAGGSLRLSCAASGSIFNRYTMGWYRQAPGKEREFVAAISSSGTSTYYADSVKGRFTISRDNAKNTVYLQMNILKPEDTAVYYCAADWTGGFYTWYVIPYDYWGQGTQVTVSS | polyreactivity (PSR sort gate) | low polyreactivity

Next sequence, please.
Task item: Using the record for QFQLVESGVGLVQAGGSLRLSCAASVRINYAYAMGWYRQTPGKERELVAAISTRGGNTYYADSVKGRFTISRDNAMNTVYLQINSLIPEETEVYYCNALSVSRRFGYDSWGQGTQVTVSS , state its measured polyreactivity (PSR sort gate).
Reply: high polyreactivity

* * *

test: yeast display, Sf9 membrane polyspecificity reagent, FACS + sequencing; frameworks hold sequencing errors
value.type: polyreactivity (PSR sort gate)

The examples below pair each entry with its known result.
entry.sequence | result
QVQLVESGGGLVQAGGSLRLSCAASGRIFSTYAMGWYRQAPGKERELVAAINKIGGSTYYADSVKGRFTISRDNAKNTDYLQMNSLKPEDSAVYYCAADAPYYPVRRYYYWGQGTQVTVSS | low polyreactivity
QVQLVESGGGLVQAGGSLRLSCAASGNTFSSNAMGWYRQAPGKERELVAGITKSGGRTYYADSVKGRFTISRDNAKNTVSLQMNSLKPEDTAVYYCAAVGSTVFGTRYYYWGQGTQVTVSS | high polyreactivity
QVQLVESGGGLVQAGGSLRLICAASGSIFGRYAMGWYRQAPGKERELVAAITGSGGTTYYADSVKGRFTISRDNAKNTVYLQMNSLKPEDTAVYYCAADPQVYYSGRPRYDYWGQGTQVTVSS | high polyreactivity
QVQLVESGGGLVQAGGSLRLSCAASGSTFVPYTMGWYRQAPGKERELVAAISGSGGTDYADSVKGRFTISRDNAKNTVYLQMNSLKPEDTAVYYCATDGLDFWFIYDYWGQGTQVTVSS | low polyreactivity

Consider the additional sequence presented here.
Task item: Supply recorded polyreactivity (PSR sort gate) for QVQLVESGGGFVQAGGSLRLSCAASGSIFVKYAMGWYRQAPGTERELVAAISRSGDSTYYADSVKGRFTLSRDNAKNTVYLQMNSLNPEDTAAYSCAAYSGYGGVSMYYWGQGTQVTVSS here.
Reply: low polyreactivity
